tested on: Oryza sativa, (L.) Tebonnet; assay: Rice tolerance to post-transplant applications under flooded paddy conditions (Example 187), ORYSAT (Rice, Tebonnet); details: 0.0625 kg/ha, rated three to four weeks after treatment
Recorded herbicidal effect rating, ORYSAT (rice tolerance) for the following compounds
observable: herbicidal effect rating, ORYSAT (rice tolerance)

{"compound": "Cc1ccc(OCC(=O)OCCCl)c(-c2nsc3ccc(-n4c(=O)cc(C(F)(F)F)n(C)c4=O)cc23)c1", "numeric value": 3.5}
{"compound": "CC(C)=CCOC(=O)COc1ccc(C)cc1-c1nsc2ccc(-n3c(=O)cc(C(F)(F)F)n(C)c3=O)cc12", "numeric value": 3.0}
{"compound": "Cc1ccc(OCC(=O)OC(C)C(C)(C)C)c(-c2nsc3ccc(-n4c(=O)cc(C(F)(F)F)n(C)c4=O)cc23)c1 (stereo not shown)", "numeric value": 0.0}
{"compound": "CCN(CC)c1nsc2ccc(-n3c(=O)cc(C(F)(F)F)n(C)c3=O)cc12", "numeric value": 0.0}
{"compound": "Cc1ccc(OCC(=O)NS(C)(=O)=O)c(-c2nsc3ccc(-n4c(=O)cc(C(F)(F)F)n(C)c4=O)cc23)c1", "numeric value": 4.0}
{"compound": "CCc1ccc(-c2nsc3ccc(-n4c(=O)cc(C(F)(F)F)n(C)c4=O)cc23)cc1", "numeric value": 3.0}
{"compound": "CCc1ccc(OC(C)C(=O)OC)c(-c2nsc3ccc(-n4c(=O)cc(C(F)(F)F)n(C)c4=O)cc23)c1 (stereo not shown)", "numeric value": 4.0}
{"compound": "COC(=O)C(C)Oc1ccc(C)cc1-c1nsc2ccc(-n3c(=S)cc(C(F)(F)F)n(C)c3=O)cc12 (stereo not shown)", "numeric value": 3.0}
{"compound": "Cn1c(C(F)(F)F)cc(=O)n(-c2ccc3snc(C(Cl)Cl)c3c2)c1=O", "numeric value": 6.0}
{"compound": "C=CCOC(=O)COc1ccc(C)cc1-c1nsc2ccc(-n3c(=O)cc(C(F)(F)F)n(C)c3=O)cc12", "numeric value": 5.0}

---

test system: Cyperus serotinus, Rottb.; assay: Preemergence weed control under flooded paddy conditions, CYPSE (Flatsedge); type: in vivo; settings: Rate 0.1250 kg/ha, preemergence, rated three to four weeks after treatment
observable: CYPSE herbicidal effect rating

{"compound": "C=C(C)C1CC=C(COCc2nsc3ccc(-n4c(=O)ccn(C)c4=O)cc23)CC1 (centres unmarked) [Example 211]", "study target": "Cyperus serotinus, Rottb.", "numeric value": 0.0}
{"compound": "Cc1ccc(OCC(=O)NS(=O)(=O)c2sc(C)nc2C)c(-c2nsc3ccc(-n4c(=O)cc(C(F)(F)F)n(C)c4=O)cc23)c1 [Example 288]", "study target": "Cyperus serotinus, Rottb.", "numeric value": 0.0}
{"compound": "Cn1c(C(F)(F)F)cc(=O)n(-c2ccc3snc(COC(CF)CF)c3c2)c1=O [Example 207]", "study target": "Cyperus serotinus, Rottb.", "numeric value": 1.0}
{"compound": "Cn1c(C(F)(F)F)cc(=O)n(-c2ccc3snc(/C=N/O)c3c2)c1=O [Example 278]", "study target": "Cyperus serotinus, Rottb.", "numeric value": 2.0}
{"compound": "Cn1c(C(F)(F)F)cc(=O)n(-c2ccc3snc(COCCCCl)c3c2)c1=O [Example 224]", "study target": "Cyperus serotinus, Rottb.", "numeric value": 2.0}
{"compound": "C#CCn1c(C(F)(F)F)cc(=O)n(-c2ccc3snc(C)c3c2)c1=O [Example 217]", "study target": "Cyperus serotinus, Rottb.", "numeric value": 0.0}
{"compound": "Cc1ccc(OCC(=O)OC(C)(C)C)c(-c2noc3ccc(-n4c(=O)cc(C(F)(F)F)n(C)c4=O)c(Cl)c23)c1 [Example 265]", "study target": "Cyperus serotinus, Rottb.", "numeric value": 0.0}
{"compound": "CC(C)=CCOCc1nsc2ccc(-n3c(=O)cc(C(F)(F)F)n(C)c3=O)cc12 [Example 210]", "study target": "Cyperus serotinus, Rottb.", "numeric value": 0.0}
